Data credit: patent US10988477B2

Give IC50 for every item shown.
Target: intracellular GCN2 (phosphorylation of the GCN2 substrate eIF2α) (Homo sapiens, UniProt Q9P2K8)
Sequence (Q9P2K8 whole entry): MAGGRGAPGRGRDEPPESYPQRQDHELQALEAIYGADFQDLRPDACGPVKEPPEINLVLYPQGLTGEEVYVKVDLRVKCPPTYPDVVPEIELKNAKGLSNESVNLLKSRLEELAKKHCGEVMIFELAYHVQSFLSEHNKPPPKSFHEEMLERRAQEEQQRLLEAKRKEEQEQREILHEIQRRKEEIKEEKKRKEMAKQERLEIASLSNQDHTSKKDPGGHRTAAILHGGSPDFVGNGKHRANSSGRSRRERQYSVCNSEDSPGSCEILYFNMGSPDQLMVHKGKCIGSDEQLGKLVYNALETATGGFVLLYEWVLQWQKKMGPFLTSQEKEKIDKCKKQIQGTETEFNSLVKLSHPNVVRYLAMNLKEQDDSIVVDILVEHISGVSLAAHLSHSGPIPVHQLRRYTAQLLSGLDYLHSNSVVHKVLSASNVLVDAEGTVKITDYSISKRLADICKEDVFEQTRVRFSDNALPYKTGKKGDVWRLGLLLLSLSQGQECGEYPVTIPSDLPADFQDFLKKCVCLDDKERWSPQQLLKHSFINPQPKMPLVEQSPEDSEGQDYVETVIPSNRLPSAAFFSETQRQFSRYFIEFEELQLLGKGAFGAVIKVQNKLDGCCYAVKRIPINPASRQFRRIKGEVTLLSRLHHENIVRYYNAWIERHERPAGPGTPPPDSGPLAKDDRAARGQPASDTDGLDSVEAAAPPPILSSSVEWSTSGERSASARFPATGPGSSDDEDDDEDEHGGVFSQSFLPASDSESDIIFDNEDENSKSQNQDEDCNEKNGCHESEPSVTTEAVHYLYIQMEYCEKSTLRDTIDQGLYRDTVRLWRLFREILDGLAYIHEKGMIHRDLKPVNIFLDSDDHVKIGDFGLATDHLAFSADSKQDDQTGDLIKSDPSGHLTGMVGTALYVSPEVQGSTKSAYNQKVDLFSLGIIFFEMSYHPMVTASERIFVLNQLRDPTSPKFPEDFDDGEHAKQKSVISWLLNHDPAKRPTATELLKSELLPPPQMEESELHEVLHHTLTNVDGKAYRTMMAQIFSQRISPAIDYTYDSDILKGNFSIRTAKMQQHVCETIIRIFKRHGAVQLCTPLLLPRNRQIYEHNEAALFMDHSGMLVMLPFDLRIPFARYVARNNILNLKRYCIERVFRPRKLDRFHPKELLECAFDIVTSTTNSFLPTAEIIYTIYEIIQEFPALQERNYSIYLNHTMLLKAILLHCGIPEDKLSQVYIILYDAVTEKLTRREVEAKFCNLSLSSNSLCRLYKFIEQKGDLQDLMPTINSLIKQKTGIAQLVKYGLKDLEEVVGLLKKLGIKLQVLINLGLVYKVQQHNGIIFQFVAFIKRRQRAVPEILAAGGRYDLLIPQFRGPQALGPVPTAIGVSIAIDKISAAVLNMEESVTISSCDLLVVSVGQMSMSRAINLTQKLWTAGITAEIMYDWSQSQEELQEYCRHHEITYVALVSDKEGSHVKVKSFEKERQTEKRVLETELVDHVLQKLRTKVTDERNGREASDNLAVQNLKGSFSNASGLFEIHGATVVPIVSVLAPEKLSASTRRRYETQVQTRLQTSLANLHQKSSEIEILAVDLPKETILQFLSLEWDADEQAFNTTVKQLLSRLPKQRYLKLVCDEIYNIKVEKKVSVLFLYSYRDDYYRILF
Test: GCN2 cellular inhibition assay (AlphaScreen SureFire P-eIF2α Ser51, borrelidin-treated U2OS cells)
Format: cell-based
Conditions: compounds of Formula II; biomarker assay, phosphorylated eIF2α Ser51 in borrelidin-treated U2OS cells

[[record]]
compound = "CCC1COC(CNS(C)(=O)=O)CN1c1cc(-c2cnc3ccc(C(F)F)nn23)ncn1 (centres unmarked)"
readout_type = "IC50"
reported_measurement = "0.5 to 5 µM"

[[record]]
compound = "O=C1CN(CC2CCN(c3cc(-c4cnc5ccc(C(F)F)nn45)ncn3)C2)CCN1 (centres unmarked)"
readout_type = "IC50"
reported_measurement = "> 5 µM"

[[record]]
compound = "CC(=O)N1CC2(C1)CN(c1cc(-c3cnc4ccc(C(F)F)nn34)cc(N3CCCC(CNS(C)(=O)=O)C3)n1)C2 (centres unmarked)"
readout_type = "IC50"
reported_measurement = "< 0.5 µM"

[[record]]
compound = "OCCC1CN(c2cc(-c3cnc4ccc(C(F)F)nn34)ncn2)CCO1 (centres unmarked)"
readout_type = "IC50"
reported_measurement = "> 5 µM"

[[record]]
compound = "CC1CC(F)(F)C(CNS(C)(=O)=O)CN1c1cc(-c2cnc3ccc(C(F)F)nn23)ncn1 (centres unmarked) [II-433]"
readout_type = "IC50"
reported_measurement = "< 0.5 µM"


Quick request: IC50 for each listed item, please.
1. O=C1CCC2CN(c3cc(-c4cnc5ccc(C(F)F)nn45)ccn3)CCN12 (centres unmarked)
2. CN1CCN(c2cc(-c3cnc4ccc(C(F)F)nn34)ncn2)CC12CN(S(N)(=O)=O)C2
3. O=S(=O)(NCC1CCCN(c2cc(-c3cnc4ccc(C(F)F)nn34)ncn2)C1)C1CC1 (centres unmarked)

1. > 5 µM
2. 0.5 to 5 µM
3. < 0.5 µM

----------
Biological target: UniProtKB Q9P2K8
Assay: GCN2 enzyme inhibition assay (Transcreener ADP2 fluorescence polarization)
Format: biochemical
Conditions: compounds of Formula II; 280 μM ATP, 4 nM GCN2 kinase
Readout type: Ki

Quick request: Ki for each listed item, please.
1. FC(F)c1ccc2ncc(-c3cc(N4CCC(Cc5ccn[nH]5)CC4)ncn3)n2n1 [II-217]
2. CC1CC(N=S(C)(=O)C2CC2)CN(c2cc(-c3cnc4ccc(C(F)F)nn34)ncn2)C1 (single isomer, unassigned) [II-645]
3. CC1C(N=S(C)(C)=O)CCCN1c1cc(-c2cnc3ccc(C(F)F)nn23)ncn1 (stereo not shown) [II-578]
4. CS(=O)(=O)NC1CCCN(c2cc(-c3cnc4ccc(C(F)F)nn34)ncn2)C1 (stereo not shown) [II-362]

10 to 1000 nM
10 to 1000 nM
< 10 nM
10 to 1000 nM

----------
Biological target: UniProt Q9P2K8
Test: GCN2 enzyme inhibition assay (Transcreener ADP2 fluorescence polarization)
Assay type: biochemical
Conditions: Enzyme activity for compounds of Formula IV; Ki(app), 280 μM ATP, 25° C.
Readout type: Ki

[[record]]
compound = "CC(C)(O)CN1CCN(c2ccnc(-c3cnc4cnc(C(F)(F)F)cn34)n2)CC1"
readout_type = "Ki"
reported_measurement = "0.1 to 1 µM"


Quick request: Ki for each listed item, please.
1. CCN1C(C)CN(c2ccnc(-c3cnc4cnc(C(F)(F)F)cn34)n2)C(C)C1c1cn[nH]c1 (single isomer, unassigned) [IV-296]
2. C[C@H]1[C@@H](c2cn[nH]c2)OCCN1c1ccnc(-c2cnc3cnc(Cl)cn23)n1 (racemic)
3. FC(F)c1cn2c(-c3nccc(-c4cccc(N5CCNCC5)n4)n3)cnc2cn1

1: < 0.01 µM; 2: < 0.01 µM; 3: 0.1 to 1 µM

Quick request: Ki for each listed item, please.
1. FC(F)(F)c1cn2c(-c3nccc(N4CCC(c5cn[nH]c5)CC4)n3)cnc2cn1
2. FC(F)(F)c1cn2c(-c3nccc(N4CCCC(c5nncs5)C4)n3)cnc2cn1 (stereo not drawn)
3. FC(F)(F)c1cn2c(-c3nccc(-c4cnn(C5CCOCC5)c4)n3)cnc2cn1
4. CC1CN(c2ncc(F)c(-c3cnc4cnc(C(F)(F)F)cn34)n2)C(C)C(c2cn[nH]c2)N1 (stereo not drawn)
5. Cn1nc(C2CCCN(c3ccnc(-c4cnc5cnc(C(F)F)cn45)n3)C2)cc1O (stereo not drawn)

1. 0.01 to 0.1 µM
2. 0.1 to 1 µM
3. 0.1 to 1 µM
4. 0.01 to 0.1 µM
5. 0.1 to 1 µM
